Just for reference, PubChem BioAssay (Tox21) is where these values come from.

# measured-on: Aromatase (Homo sapiens) (UniProt P11511)
# Sequence (P11511 whole entry, looked up): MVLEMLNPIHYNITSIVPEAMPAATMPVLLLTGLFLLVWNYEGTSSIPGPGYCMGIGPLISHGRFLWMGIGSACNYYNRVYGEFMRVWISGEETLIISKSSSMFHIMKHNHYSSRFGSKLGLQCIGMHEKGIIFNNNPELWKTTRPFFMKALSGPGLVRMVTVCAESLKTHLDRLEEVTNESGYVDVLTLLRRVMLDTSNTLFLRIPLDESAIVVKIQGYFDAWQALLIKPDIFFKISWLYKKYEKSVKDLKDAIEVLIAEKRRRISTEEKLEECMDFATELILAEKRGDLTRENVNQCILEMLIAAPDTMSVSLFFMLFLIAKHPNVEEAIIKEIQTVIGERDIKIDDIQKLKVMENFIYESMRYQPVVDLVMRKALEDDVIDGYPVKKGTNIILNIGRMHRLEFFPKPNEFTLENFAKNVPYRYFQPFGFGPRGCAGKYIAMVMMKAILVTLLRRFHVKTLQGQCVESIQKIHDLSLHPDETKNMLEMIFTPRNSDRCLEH
# protocol: qHTS assay to identify aromatase inhibitors (AID 743083); note: nearly all actives have a fitted effect of over 55% in size
# conditions: MCF-7 aro ERE, testosterone-driven ERE luciferase, 24 h; series mostly up to 70.3 µM
Results filed as inconclusive are left out. Calls of active or inactive are those of the source. Calls come from the whole dose curve; as a rule, active = well fitted inhibition curve with a large enough effect in the repeat runs; inconclusive = weak or mixed curves; inactive = no such curve, though single readings can be large or run the other way.
In this exercise, the only acceptable responses are active, inactive

>  <smiles-representation>
C[C@]12CC[C@H]3[C@@H](CCC4=CC(=O)CC[C@@]43C)[C@@H]1CC[C@@H]2O

>  <qualitative-label>
inactive

$$$$
>  <smiles-representation>
Nc1ccccc1C(=O)Oc1ccc2ccccc2c1

>  <qualitative-label>
inactive

$$$$
>  <smiles-representation>
COc1ccc(/C(=C/C(=O)N2CCOCC2)c2ccc(Cl)cc2)cc1OC

>  <qualitative-label>
inactive

$$$$
>  <smiles-representation>
COc1cccc(C(=O)CCN[C@@H](C)[C@H](O)c2ccccc2)c1

>  <qualitative-label>
inactive

$$$$
>  <smiles-representation>
Oc1ccc(C2(c3ccc(O)cc3)CCCCC2)cc1

>  <qualitative-label>
active

$$$$

Turning now to a further record.
input: Tell me the assay call for ClC1=C(Cl)[C@]2(Cl)[C@H]3[C@H]([C@H]4C=C[C@H]3C4)[C@@]1(Cl)C2(Cl)Cl please.
output: inactive

----------
# protocol: qHTS assay to identify small molecule antagonists of the retinoid acid receptor (RAR) signaling pathway - cell viability counter screen (AID 1159551); note: nearly all actives have a fitted effect of over 35% in size
# conditions: C3RL4 cells viability, ATP luminescence (CellTiter-Glo), 6 h; series mostly up to 92.4 µM
Records with an inconclusive call do not appear. Activity calls are given as the source filed them. Calls come from the whole dose curve; as a rule, active = well fitted cell-killing curve with a large enough effect in the repeat runs; inconclusive = weak or mixed curves, or effect the other way; inactive = flat fitted curve, though single readings scatter.
In this exercise, the only acceptable responses are active, inactive

>  <compound>
COC12CC[C@@]3(C[C@@H]1C(C)(O)C(C)(C)C)[C@H]1Cc4ccc(O)c5c4[C@@]3(CCN1CC1CC1)[C@H]2O5 (stereo partly specified)

>  <qualitative-label>
active

$$$$
>  <compound>
BrCBr

>  <qualitative-label>
inactive

$$$$

input: Tell me the assay call for N#CCCSCCC#N please.
output: inactive

input: Tell me the assay call for COCC(=O)N(c1c(C)cccc1C)[C@H](C)C(=O)OC please.
output: inactive

input: Tell me the assay call for CC(=O)c1ccc(-c2ccccc2)cc1 please.
output: inactive

input: Tell me the assay call for O=[N+]([O-])c1ccc(Oc2ccc(C(F)(F)F)cc2[N+](=O)[O-])cc1 please.
output: inactive

----------
# measured-on: Thyrotropin receptor (Homo sapiens)
# protocol: qHTS assay to identify small molecule agonists of the thyroid stimulating hormone receptor (TSHR) signaling pathway (AID 1224843); note: nearly all actives have a fitted effect of over 45% in size
# conditions: TSHR-HEK293 cells, cAMP HTRF, agonist mode, 30 min; series mostly up to 92.4 µM
Results filed as inconclusive are left out. The source made the active and inactive calls. Calls come from the whole dose curve.
In this exercise, the only acceptable responses are active, inactive

Field: example entries. Status: answers known.
>  <smiles-representation>
CCN(CC)c1c([N+](=O)[O-])cc(C(F)(F)F)c(N)c1[N+](=O)[O-]

>  <qualitative-label>
active

$$$$
>  <smiles-representation>
CSCCCN=C=S

>  <qualitative-label>
inactive

$$$$

Turning now to a further record.
input: Tell me the assay call for Oc1ccc(C(c2ccc(O)cc2)(C(F)(F)F)C(F)(F)F)cc1 please.
output: active

----------
# protocol: A CellTox Green Cytotoxicity Assay to monitor cytotoxicity in HEK293 cells - 32 hour (AID 1224881); note: nearly all actives have a fitted effect of over 40% in size
# conditions: CellTox Green fluorescence; series mostly up to 76.8 µM
Inconclusive results are not listed. Calls of active or inactive are those of the source. Calls come from the whole dose curve; as a rule, active = well fitted activation curve with a large enough effect in the repeat runs; inconclusive = weak or mixed curves; inactive = flat fitted curve, though single readings scatter.
In this exercise, the only acceptable responses are T for active, F for inactive

Field: example entries. Status: answers known.
>  <smiles-representation>
CC(=O)C(Cl)(Cl)Cl

>  <qualitative-label>
F

$$$$
>  <smiles-representation>
C=CC(=O)OCC(COC(=O)C=C)(COC(=O)C=C)COC(=O)C=C

>  <qualitative-label>
T

$$$$

input: Tell me the assay call for Oc1ccc(I)cc1 please.
output: F

input: Tell me the assay call for Clc1ccc(CO/N=C(\Cn2ccnc2)c2ccc(Cl)cc2Cl)c(Cl)c1 please.
output: F

input: Tell me the assay call for Oc1cccc(-c2ccccc2)c1 please.
output: F

input: Tell me the assay call for COC(=O)N(C(=O)N1CO[C@@]2(C(=O)OC)Cc3cc(Cl)ccc3C2=N1)c1ccc(OC(F)(F)F)cc1 please.
output: F

----------
# protocol: Caspase-3/7 induction in HepG2 cells by small molecules, qHTS cell viability counter screen (AID 1346981); note: nearly all actives have a fitted effect of over 30% in size
# conditions: CellTiter-Fluor fluorescence, 17 h; series mostly up to 92.4 µM
Records with an inconclusive call do not appear. Calls of active or inactive are those of the source. Calls come from the whole dose curve; as a rule, active = well fitted cell-killing curve with a large enough effect in the repeat runs; inconclusive = weak or mixed curves, or effect the other way; inactive = flat fitted curve, though single readings scatter.
In this exercise, the only acceptable responses are active, inactive

>  <compound>
CC(=O)C(Cl)(Cl)Cl

>  <qualitative-label>
active

$$$$
>  <compound>
BrC(Br)C(Br)(Br)Br

>  <qualitative-label>
inactive

$$$$
>  <compound>
CC1(C)[C@H](C(=O)O[C@H](C#N)c2cccc(Oc3ccccc3)c2)[C@@H]1/C=C(\Cl)C(F)(F)F

>  <qualitative-label>
inactive

$$$$

input: Tell me the assay call for COC(=O)N(C(=O)N1CO[C@@]2(C(=O)OC)Cc3cc(Cl)ccc3C2=N1)c1ccc(OC(F)(F)F)cc1 please.
output: inactive

input: Tell me the assay call for O=C(CCCN1CCC2(CC1)C(=O)NCN2c1ccccc1)c1ccc(F)cc1 please.
output: active

----------
# protocol: qHTS assay to identify aromatase inhibitors - cell viability counter screen (AID 743084);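 note: cells stimulated with testosterone during compound exposure; nearly all actives have a fitted effect of over 55% in size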
# conditions: MCF-7 aro ERE viability, CellTiter-Fluor, 24 h; series mostly up to 70.3 µM
Results filed as inconclusive are left out. Active and inactive are the calls of the source. Calls follow the shape of the dose curve; as a rule, active = well fitted cell-killing curve with a large enough effect in the repeat runs; inconclusive = weak or mixed curves, or effect the other way; inactive = no such curve, though single readings can be large or run the other way.
In this exercise, the only acceptable responses are true (active), false (inactive)

Field: example entries. Status: answers known.
>  <compound>
OC(c1ccc(Cl)cc1)(c1ccc(Cl)cc1)C(Cl)(Cl)Cl

>  <qualitative-label>
true

$$$$
>  <compound>
C=CCC1=C(C)C(OC(=O)C2C(C=C(C)C)C2(C)C)CC1=O (stereo unspecified)

>  <qualitative-label>
true

$$$$
>  <compound>
CCCCCCCCCCCCCN1CC(C)OC(C)C1 (stereo unspecified)

>  <qualitative-label>
false

$$$$

input: Tell me the assay call for COC(=O)N(C(=O)N1CO[C@@]2(C(=O)OC)Cc3cc(Cl)ccc3C2=N1)c1ccc(OC(F)(F)F)cc1 please.
output: false

input: Tell me the assay call for ClC(Cl)=C(Cl)Cl please.
output: false

input: Tell me the assay call for C=CC(=O)OCC(COC(=O)C=C)(COC(=O)C=C)COC(=O)C=C please.
output: true

----------
# protocol: qHTS assay to identify small molecule agonists of the peroxisome proliferator-activated receptor delta (PPARd) signaling pathway - cell viability counter screen (AID 743211); note: nearly all actives have a fitted effect of over 55% in size
# conditions: PPARd-bla HEK293H viability, CellTiter-Glo luminescence, 17 h; series mostly up to 62.6 µM
Records with an inconclusive call do not appear. Active and inactive are the calls of the source. Calls follow the shape of the dose curve; as a rule, active = well fitted cell-killing curve with a large enough effect in the repeat runs; inconclusive = weak or mixed curves; inactive = no such curve, though single readings can be large or run the other way.
In this exercise, the only acceptable responses are True = active, False = inactive

>  <compound>
Nc1ccc(Sc2ccc(N)cc2)cc1

>  <qualitative-label>
False

$$$$

Turning now to a further record.
input: Tell me the assay call for COP(=S)(OC)Oc1cc(Cl)c(Br)cc1Cl please.
output: False

----------
# protocol: qHTS RealTime-Glo MT Cell Viability Assay in HEK293 cells - 40 hour (AID 1224874); note: potency is the fitted concentration of half-maximal effect; nearly all actives have a fitted effect of over 50% in size
# conditions: RealTime-Glo luminescence
Records with an inconclusive call do not appear. Calls of active or inactive are those of the source. The call rests on the fitted dose curve; in most records, active means well fitted cell-killing curve with a large enough effect in the repeat runs; inconclusive means weak or mixed curves, or effect the other way; inactive means flat fitted curve, though single readings scatter.
property-label: Potency

>  <molecule>
CC(C)(C)C(O)C(Oc1ccc(-c2ccccc2)cc1)n1cncn1 (stereo unspecified)

>  <Potency>
21.9 µM (active)

$$$$
>  <molecule>
CCCCCCCCc1ccc(O)cc1

>  <Potency>
17 µM (active)

$$$$
>  <molecule>
Oc1ccc(C2(c3ccc(O)cc3)CCCCC2)cc1

>  <Potency>
46.4 µM (active)

$$$$
>  <molecule>
CC(C)(C)c1ccc(CSc2cnn(C(C)(C)C)c(=O)c2Cl)cc1

>  <Potency>
0.0069 µM (active)

$$$$
>  <molecule>
C=CC(=O)OCCCCOC(=O)C=C

>  <Potency>
34.7 µM (active)

$$$$

Value of Potency reported for the molecule CC(=O)[O-].CC(=O)[O-].O.O.[Cd+2] is 15.3 µM (active)

Value of Potency reported for the molecule CC1CCC(C(C)C)C(OC(=O)c2ccccc2N)C1 (stereo unspecified) is 34.2 µM (active)

----------
# protocol: A CellTox Green Cytotoxicity Assay to monitor cytotoxicity in HEK293 cells - 8 hour (AID 1224884); note: nearly all actives have a fitted effect of over 35% in size
# conditions: CellTox Green fluorescence; series mostly up to 76.8 µM
Inconclusive results are not listed. Active and inactive are the calls of the source. Calls follow the shape of the dose curve; as a rule, active = well fitted activation curve with a large enough effect in the repeat runs; inconclusive = weak or mixed curves; inactive = flat fitted curve, though single readings scatter.
In this exercise, the only acceptable responses are active, inactive

>  <molecule>
C[C@]12CC[C@@H]3c4ccc(OC(=O)N(CCCl)CCCl)cc4CC[C@H]3[C@@H]1CC[C@@H]2O

>  <qualitative-label>
inactive

$$$$
>  <molecule>
c1ccc2cc3c(cc2c1)-c1cccc2cccc-3c12

>  <qualitative-label>
inactive

$$$$
>  <molecule>
Cc1cc(SCc2sc(-c3ccc(C(F)(F)F)c(F)c3)nc2C)ccc1OCC(=O)O

>  <qualitative-label>
inactive

$$$$
>  <molecule>
CCCCOCN(C(=O)CCl)c1c(CC)cccc1CC

>  <qualitative-label>
inactive

$$$$
>  <molecule>
ClC1=C(Cl)C2(Cl)C3C(Cl)C(Cl)CC3C1(Cl)C2(Cl)Cl (stereo unspecified)

>  <qualitative-label>
active

$$$$

input: Tell me the assay call for CCC(C)c1cc([N+](=O)[O-])cc([N+](=O)[O-])c1OC(=O)C=C(C)C (stereo unspecified) please.
output: inactive
